protocol description: WST-1 cytotoxicity test, A2780
Type: cell-based
measurement parameters: human, A2780 cells; A2780, doxorubicin 1 µM cytotoxicity control, WST-1, mean ± SD; read-out: relative viability (%) compared to untreated control
measure name: viability at 48 h, 1 µM (%)
Answer format: numeric, % implied, no suffix.

Quick note, viability at 48 h, 1 µM for COc1cccc2c1C(=O)c1c(O)c3c(c(O)c1C2=O)C[C@@](O)(C(=O)CO)C[C@@H]3O[C@H]1C[C@H](N)[C@H](O)[C@H](C)O1 [DOX, doxorubicin, reference compound] landed at 8

* * *

protocol description: WST-1 cytotoxicity test, SAOS-2
Format: cell-based
measurement parameters: human, SAOS-2 cells; SAOS-2, 100 µM, 48 h, WST-1, mean ± SD of three experiments; read-out: relative viability (%) compared to untreated control
measure name: viability at 48 h, 100 µM (%)
# unit: % | format: bare number

Some solved cases for reference:
compound=Cl.Cl.Cl.OCCN1CCN(CCCNc2ccccc2)CC1 readout_units=% observed_result=111
compound=Cl.Cl.Cl.OCCN1CCN(CCCNc2cccc3ccccc23)CC1 readout_units=% observed_result=111
compound=Cl.Cl.OC(CNc1ccccc1)CNc1ccccc1 readout_units=% observed_result=90
compound="Cl.Cl.Cl.OCCN1CCN(CC(O)CNc2ccccc2)CC1 (centres unmarked)" readout_units=% observed_result=102

Attention now turns to another entry.
The compound listed as Cc1cc(OCC(O)CN2CCN(CCO)CC2)ccc1Cl.Cl.Cl (centres unmarked) shows viability at 48 h, 100 µM equal to 88

* * *

Below is a list of entries, each paired with its recorded viability at 48 h, 100 µM value.
protocol description: WST-1 cytotoxicity test, A549
Type: cell-based
measurement parameters: human, A549 cells; A549, 100 µM, 48 h, WST-1, mean ± SD of three experiments; read-out: relative viability (%) compared to untreated control
# unit: % | format: bare number

molecule=COc1ccc2nc3c(c(NCCN4CCN(CCO)CC4)c2c1)CCCC3.Cl.Cl.Cl observed_result=13
molecule=Cl.Cl.OC(CNc1ccccc1)CNc1ccccc1 observed_result=98
molecule=Cl.Cl.Cl.OCCN1CCN(CCCNc2ccccc2)CC1 observed_result=104
molecule="Cc1cc(OCC(O)CN2CCN(CCO)CC2)ccc1Cl.Cl.Cl (centres unmarked)" observed_result=99

viability at 48 h, 100 µM reading for Cl.Cl.Cl.OCCN1CCN(CC(O)CNc2ccccc2)CC1 (centres unmarked) : 105

* * *

protocol description: WST-1 cytotoxicity test, MCF-7
Format: cell-based
measurement parameters: human, MCF-7 cells; MCF-7, 100 µM, 48 h, WST-1, mean ± SD of three experiments; read-out: relative viability (%) compared to untreated control
measure name: viability at 48 h, 100 µM (%)
Express it in %; write the number only.

# example entries with known answers
molecule=Cl.Cl.Cl.OCCN1CCN(CCCNc2cccc3ccccc23)CC1 measure_name="viability at 48 h, 100 µM" observed_result=94
molecule=Cl.Cl.Cl.OCCN1CCN(CCCNc2ccccc2)CC1 measure_name="viability at 48 h, 100 µM" observed_result=106
molecule=Cl.Cl.OC(CNc1ccccc1)CNc1ccccc1 measure_name="viability at 48 h, 100 µM" observed_result=98
molecule="Cc1cc(OCC(O)CN2CCN(CCO)CC2)ccc1Cl.Cl.Cl (centres unmarked)" measure_name="viability at 48 h, 100 µM" observed_result=90
molecule=COc1ccc2nc3c(c(NCCN4CCN(CCO)CC4)c2c1)CCCC3.Cl.Cl.Cl measure_name="viability at 48 h, 100 µM" observed_result=10

According to the records, this molecule `COc1ccc(NCCCN2CCN(CCO)CC2)cc1.Cl.Cl.Cl` displays viability at 48 h, 100 µM of 104

Entry under test: `OCCN1CCN(CC(O)CN2CCN(CCO)CC2)CC1` . Its viability at 48 h, 100 µM was 96

Query Cl.Cl.Cl.OCCN1CCN(CC(O)CNc2ccccc2)CC1 (centres unmarked) yields viability at 48 h, 100 µM of 96
